test: soluble on expression in E. coli; label from the status in PepcDB or PDB records

- CHAIN: "MAHHHHHHMLSIRKCNIYDLLSMQQCNSINLPENYNLRYYFYHALSWPYLSQIAEDVNGKVCGYSLGKLEEDNEYKGHLTSVAVLKTYRKLKLAFYLILQTHQHLKDIYRANNICLHVRVSNNAALNLYYNLLNYKVNGIETQYYGNKENAYLMEHVFAR"
  soluble on expression in E. coli: "not soluble"
- CHAIN: "MKQRHGNSLLTTDTKCISCRLGVPLSPQRRFQAIRIEEVKLRWFAFLIVLLAGCSSKHDYTNPPWNAKVPVQRAMQWMPISQKAGAAWGVDPQLITAIIAIESGGNPNAVSKSNAIGLMQLKASTSGRDVYRRMGWSGEPTTSELKNPERNISMGAAYLNILETGPLAGIEDPKVLQYALVVSYANGAGALLRTFSSDRKKAISKINDLDADEFLDHVARNHPAPQAPRYIYKLEQALDAM"
  soluble on expression in E. coli: "not soluble"
- CHAIN: "MGSDKIHHHHHHMTSPNTTQGAADPIQSYLNQGLRNYWYPVAPSWQVGDAPVGITRLGDQIVLWRDKEGKVRALEDRCPHRGARLSLGWNLGGSVACWYHGIEVDGGGTVTKVPAVSNCPLEGQKCVKSYPVEEHAGAIFLWFGDDAHKEPAPLVLPEELVGEEYASFLCMSHWKCNYQYAIDNVMDPMHGAYLHATSHSMAEGDKQADMRVRKTETGLMFEKIGQRDVNFDWVELGETGCLWMRLAIPYKKKFGPGGNFGIIGFAVPVDEDNCQVYFWRTRKVQGWQRDAWRFMYRNRLEGLHWAVLEQDRYVLESMAPNARDHEFLYQHDVGMTRVRRMLRQRAQQHFADLDAHRAQAVSATPAAAEAGHSHA"
  soluble on expression in E. coli: "not soluble"

====

assay: soluble on expression in E. coli; label from the status in PepcDB or PDB records
MEASUREMENT_KIND: soluble on expression in E. coli

- CHAIN: "GEDFFFVVMRDISSKKILEREFSMNEQLFKDLFDRAVDGIVLFDKDGGFIDANLSFCKSFEINHNELSHLSLYEFIDSGSRKDFDNIWKALNRKGKAKGELPVKLRSGVQKLFEFTITSNII"
  MEASUREMENT_KIND: "soluble on expression in E. coli"
  MEAS_VALUE: "not soluble"
- CHAIN: "MNHQYQDLIDIFNQTFYADYNTKLELGGDEPIYLPADERVSYHRIIFARGFYASALHEIAHWCVAGPQRRLLEDFGYWYEPDGRTAQVQAEFEKVEIRPQAYEWILAISAGFPFTVSCDNLNGDFEPDRLAFMSKVHSEVLKILEQGLPQRVKMLSEALRAFYQTPALLPEHFVVK"
  MEASUREMENT_KIND: "soluble on expression in E. coli"
  MEAS_VALUE: "not soluble"

====

experiment: soluble on expression in E. coli; label from the status in PepcDB or PDB records

- CHAIN: "MNIQSIETYQVRLPLKTPFVTSYGRLEEKAFDLFVITDEQGNQGFGELVAFEQPDYVQETLVTERFIIQQHLIPLLLTEAIEQPQEVSTIFEEVKGHWMGKAALETAIWDLYAKRQQKSLTEFFGPTRRKIPVGISLGIQEDLPQLLKQVQLAVEKGYQRVKLKIRPGYDVEPVALIRQHFPNLPLMVDANSAYTLADLPQLQRLDHYQLAMIEQPFAADDFLDHAQLQRELKTRICLDENIRSLKDCQVALALGSCRSINLKIPRVGGIHEALKIAAFCQENDLLVWLGGMFESGVGRALNLQFASQPTFSFPGDISATERYFYEDIITEPFILEQGTMTVPQGLGIGVTLSQTNLLKYSQYQKIM"
  soluble on expression in E. coli: "not soluble"
- CHAIN: "MGSDKIHHHHHHMPRNLPPLYALRAFEAAARHTSFTRAAEELSITQSAVSRHIRTLEEHFACRLFQRNGRNLQLTESARTLLPGVRDGFLALERACSTLQTDEGVLRMKAPSTLTMRWLLARLSRFRHLQVGNEVQLTSAWMDIDAVDFTREPFDCAILLSQGHFPSDWEATLLFAELLIPVGAPTLSQDPPWDVERLAKAELLHPTPDRRDWRTWLNRMGLADQVSLKGGQVFDTLELGMIAAARGYGVSMGDLLMVAEDLAQSRLSLPWRTAVFSGENYYLVWPRTRPGAERLRRLSDFLQAEVKAMKLPLVEVLR"
  soluble on expression in E. coli: "not soluble"
